Measured values drawn from patent US12077604B2 for this set.

study-target: CXCR4 (h) (Homo sapiens)
Sequence (P61073 whole entry): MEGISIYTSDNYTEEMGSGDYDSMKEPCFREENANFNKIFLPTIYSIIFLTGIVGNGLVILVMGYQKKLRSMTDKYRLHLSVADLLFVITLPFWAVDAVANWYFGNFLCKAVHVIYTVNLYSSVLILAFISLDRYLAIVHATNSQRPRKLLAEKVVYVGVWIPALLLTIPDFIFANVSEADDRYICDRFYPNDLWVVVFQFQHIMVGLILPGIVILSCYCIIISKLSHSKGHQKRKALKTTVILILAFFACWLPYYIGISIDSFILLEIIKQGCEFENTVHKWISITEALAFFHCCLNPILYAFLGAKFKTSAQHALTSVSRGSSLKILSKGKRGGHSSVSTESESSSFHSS
procedure-text: CXCR4 (h) cellular antagonist effect, impedance by dielectric spectroscopy, stimulated with 1 nM SDF-1α
measurement-conditions: recombinant human CXCR4 in CHO cells, 28° C., read-out: IC50, inhibition of control reference agonist response for CXCR4 (h)
observation-type: IC50

Request: Notebook: pull reported IC50 for CXCR4 (h) (Homo sapiens), entry `CCCC[C@@H](NC(=O)[C@@H](Cc1cn(C(=O)OC)c2ccccc12)NC(=O)[C@H](CC(C)(C)C)NC(=O)N1[C@H](C)CCC[C@@H]1C)C(=O)O`
Response: > 1000 nM
